Kindly supply the reported CC50 at 48 h values for the records listed here.
- ASSAY_EXPLANATION: Cytotoxicity assay, MTT method, 48 h
- Type: cell-based, murine
- EXPERIMENTAL_CONDITIONS: mouse, J774.2 macrophage cells, J774.2 cell line, read-out: Macrophage J774.2 CC50 (µM ± SD)

Consider the following illustrative entries.
>  <COMPOUND>
CCOC(=O)c1cc(-c2ccc(F)cc2)c(C(=O)OCC)nc1C [Compound 3c]

>  <CC50 at 48 h>
> 200 µM

$$$$
>  <COMPOUND>
CCOC(=O)c1nc(C)c(C(=O)OCCC(C)CCC=C(C)C)cc1-c1ccc(C)cc1 (stereo not drawn) [Compound 11b]

>  <CC50 at 48 h>
169 µM

$$$$
>  <COMPOUND>
CCOC(=O)c1cc(-c2ccc(C)cc2)c(C(=O)OCC)nc1C [Compound 3b]

>  <CC50 at 48 h>
> 200 µM

$$$$
>  <COMPOUND>
CCOC(=O)c1nc(C)c(C(=O)OC2C[C@@H]3CC[C@@]2(C)C3(C)C)cc1-c1ccc(F)cc1 (stereo partly drawn) [Compound 9c]

>  <CC50 at 48 h>
> 200 µM

$$$$
>  <COMPOUND>
CCOC(=O)c1nc(C)c(C(=O)OCC=Cc2ccccc2)cc1-c1ccc(F)cc1 [Compound 7c]

>  <CC50 at 48 h>
> 200 µM

$$$$

Shifting focus to the compound that follows.
Query: Any idea what CC50 at 48 h was measured for CCOC(=O)c1nc(C)c(C(=O)OC/C=C/c2ccccc2)cc1-c1ccccc1 [Compound 7a] ?
Response: > 200 µM

###

- Test system: T. cruzi (A1) epimastigotes
- ASSAY_EXPLANATION: In vitro trypanocidal activity, Alamar Blue assay, 48 h
- Type: cell-based, Trypanosoma cruzi
- EXPERIMENTAL_CONDITIONS: CC50 (J774.2)/IC50
READOUT: Selectivity Index T. cruzi A1

Consider the following illustrative entries.
>  <MOLECULE>
CCOC(=O)c1nc(C)c(C(=O)OCc2ccc(C)cc2)cc1-c1ccccc1 [Compound 5a]

>  <READOUT>
Selectivity Index T. cruzi A1

>  <ENDPOINT_RESULT>
>9.3

$$$$
>  <MOLECULE>
CCOC(=O)c1nc(C)c(C(=O)OCc2ccc3c(c2)OCO3)cc1-c1ccccc1 [Compound 6a]

>  <READOUT>
Selectivity Index T. cruzi A1

>  <ENDPOINT_RESULT>
>1

$$$$
>  <MOLECULE>
CCOC(=O)c1nc(C)c(C(=O)OCc2ccc(C)cc2)cc1-c1ccc(F)cc1 [Compound 5c]

>  <READOUT>
Selectivity Index T. cruzi A1

>  <ENDPOINT_RESULT>
>9.6

$$$$
>  <MOLECULE>
CCOC(=O)c1nc(C)c(C(=O)OCc2ccc(C)cc2)cc1-c1ccc(C)cc1 [Compound 5b]

>  <READOUT>
Selectivity Index T. cruzi A1

>  <ENDPOINT_RESULT>
>1

$$$$
>  <MOLECULE>
CCOC(=O)c1nc(C)c(C(=O)OC/C=C(\C)CCC=C(C)C)cc1-c1ccc(C)cc1 [Compound 12b]

>  <READOUT>
Selectivity Index T. cruzi A1

>  <ENDPOINT_RESULT>
>1

$$$$
>  <MOLECULE>
CCOC(=O)c1nc(C)c(C(=O)OCC=Cc2ccccc2)cc1-c1ccc(C)cc1 [Compound 7b]

>  <READOUT>
Selectivity Index T. cruzi A1

>  <ENDPOINT_RESULT>
>1

$$$$
>  <MOLECULE>
CCOC(=O)c1cc(-c2ccccc2)c(C(=O)OCC)nc1C [Compound 3a]

>  <READOUT>
Selectivity Index T. cruzi A1

>  <ENDPOINT_RESULT>
>7.5

$$$$
>  <MOLECULE>
CCOC(=O)c1nc(C)c(C(=O)O[C@@H]2C[C@@H](C)CC[C@@H]2C(C)C)cc1-c1ccc(C)cc1 [Compound 8b]

>  <READOUT>
Selectivity Index T. cruzi A1

>  <ENDPOINT_RESULT>
>3.9

$$$$

Would you mind listing Selectivity Index T. cruzi A1 for each of the following molecules?
1. CCOC(=O)c1nc(C)c(C(=O)OC/C=C/c2ccccc2)cc1-c1ccccc1 [Compound 7a]
2. CCOC(=O)c1nc(C)c(C(=O)OCC23CC4CC(CC(C4)C2)C3)cc1-c1ccccc1 [Compound 10a]
3. CCOC(=O)c1nc(C)c(C(=O)OCc2ccccc2)cc1-c1ccccc1 [Compound 4a]
4. CCOC(=O)c1nc(C)c(C(=O)O[C@@H]2C[C@@H](C)CC[C@@H]2C(C)C)cc1-c1ccccc1 [Compound 8a]
5. CCOC(=O)c1cc(-c2ccc(F)cc2)c(C(=O)OCC)nc1C [Compound 3c]

Response:
>1
>4.3
>7.0
>1
>2.2

Would you mind listing Selectivity Index T. cruzi A1 for each of the following molecules?
1. CCOC(=O)c1nc(C)c(C(=O)OC/C=C(\C)CCC=C(C)C)cc1-c1ccccc1 [Compound 12a]
2. CCOC(=O)c1nc(C)c(C(=O)OCCC(C)CCC=C(C)C)cc1-c1ccc(F)cc1 (centres unmarked) [Compound 11c]
3. CCOC(=O)c1nc(C)c(C(=O)OC/C=C(\C)CCC=C(C)C)cc1-c1ccc(F)cc1 [Compound 12c]
4. CCOC(=O)c1nc(C)c(C(=O)OC2C[C@@H]3CC[C@@]2(C)C3(C)C)cc1-c1ccccc1 (some centres unmarked) [Compound 9a]

Response:
0.2
>8.0
>4.0
>8.0
